# Tested on: Botrytis cinerea
# Test: Test A: preventive spray on tomato seedlings, tomato Botrytis, visual disease rating
# Type: in vivo
# Cond: 200 ppm test suspension, Botrytis cinerea inoculated the day after spraying
Some compounds, each annotated with its measured Test A rating (disease control).
Endpoint: Test A rating (disease control)

1) CCCNc1c(-c2ccc(Cl)cc2Cl)c(C)nn1C = 65%
2) Cc1nn(C)c(NC(C)C)c1-c1ccc(F)cc1Br = 100%
3) CCCC(O)c1c(-c2c(F)cccc2F)c(C)nn1C (centres unmarked) = 33%
4) Cc1nn(C)c(C(O)CC(C)C)c1-c1c(F)cccc1F (centres unmarked) = 67%
5) CCCC(O)c1c(-c2c(F)cccc2Cl)c(C)nn1C (centres unmarked) = 75%

---

# System: Septoria nodorum
# Test: Test C: preventive spray on wheat seedlings, Septoria glume blotch, visual disease rating
# Assay type: in vivo
# Cond: Parastagonospora nodorum, 264 h, 200 ppm test suspension, Septoria nodorum inoculated the day after spraying
Endpoint: pest or weed control at 200 ppm

1) Cc1nn(C)c(OCC2CC2)c1-c1ccc(F)cc1Cl = 69%
2) Cc1nn(C)c(OCC(C)C)c1-c1c(F)cc(F)cc1F = 0%
3) Cc1nn(C)c(N2CCOCC2)c1-c1ccc(F)cc1Cl = 0%
4) CCC(C)C(O)c1c(-c2ccc(F)cc2Cl)c(C)nn1C (stereo not shown) = 0%
5) Cc1nn(C)c(NC2CCCCC2)c1-c1ccc(F)cc1F = 0%
6) Cc1nn(C)c(OC2CCCCC2)c1-c1ccc(F)cc1Cl = 0%
7) CSC(c1c(-c2c(F)cccc2Cl)c(C)nn1C)C(C)C (stereo not shown) = 99%
8) Cc1nn(C)c(N2CCC(C)CC2)c1-c1ccc(F)cc1Cl = 0%
9) CCCCNc1c(-c2ccc(Cl)cc2Cl)c(C)nn1C = 0%
10) Cc1nn(C)c(NCC(C)C)c1-c1ccc(Cl)cc1Cl = 0%

---

# Test system: Alternaria solani
# Test: Test B: preventive spray on tomato seedlings, tomato early blight, visual disease rating
# Assay type: in vivo
# Cond: 200 ppm test suspension, Alternaria solani inoculated the day after spraying
Assign class by Test B rating (disease control): not lower than 80% means condition met; lower than 80% means condition not met.

1) Cc1nn(C)c(NCC(C)C)c1-c1ccc(Cl)cc1Cl = condition met
2) CCC=C(C)C(O)c1c(-c2c(F)cccc2F)c(C)nn1C (stereo not shown) = condition met
3) Cc1nn(C)c(C(O)C2CCCCC2)c1-c1c(F)cccc1Cl (stereo not shown) = condition met
4) CCC(C)C(O)c1c(-c2ccc(F)cc2Cl)c(C)nn1C (stereo not shown) = condition met
5) Cc1nn(C)c(C(O)C2=CCCCC2)c1-c1c(F)cccc1F (stereo not shown) = condition met
6) C=CCC(C)(C)C(O)c1c(-c2c(F)cccc2F)c(C)nn1C (stereo not shown) = condition not met
7) CCCNc1c(-c2ccc(Cl)cc2Cl)c(C)nn1C = condition not met
8) Cc1nn(C)c(C(O)CC(C)C)c1-c1c(F)cccc1Cl (stereo not shown) = condition met
9) CC=C(C)C(O)c1c(-c2c(F)cccc2Cl)c(C)nn1C (stereo not shown) = condition not met
10) CCCC(O)c1c(-c2c(F)cccc2F)c(C)nn1C (stereo not shown) = condition not met
11) CCCC(O)c1c(-c2c(F)cccc2Cl)c(C)nn1C (stereo not shown) = condition not met
12) CCCCC(CC)C(O)c1c(-c2c(F)cccc2F)c(C)nn1C (stereo not shown) = condition not met
13) CCCCNc1c(-c2ccc(Cl)cc2Cl)c(C)nn1C = condition not met
14) Cc1nn(C)c(C(O)C(C)C)c1-c1ccc(F)cc1Cl (stereo not shown) = condition not met
15) CCC(C)C(O)c1c(-c2c(F)cccc2F)c(C)nn1C (stereo not shown) = condition met
16) Cc1nn(C)c(C(O)C(C)(C)CCC#N)c1-c1c(F)cccc1F (stereo not shown) = condition not met
17) Cc1nn(C)c(NC2CCCCC2)c1-c1ccc(F)cc1F = condition met
18) Cc1nn(C)c(NC(C)C)c1-c1ccc(F)cc1F = condition not met
